Origin of the recorded values: patent US9440957B2

target: H1975 (EGFR L858/T790M) (Homo sapiens, UniProt P00533, L858R/T790M); test: EGFR target modulation in H1975 cell line (phospho-EGFR Y1173 ELISA); type: cell-based
Sequence (P00533 25-1210 T790M/L858R): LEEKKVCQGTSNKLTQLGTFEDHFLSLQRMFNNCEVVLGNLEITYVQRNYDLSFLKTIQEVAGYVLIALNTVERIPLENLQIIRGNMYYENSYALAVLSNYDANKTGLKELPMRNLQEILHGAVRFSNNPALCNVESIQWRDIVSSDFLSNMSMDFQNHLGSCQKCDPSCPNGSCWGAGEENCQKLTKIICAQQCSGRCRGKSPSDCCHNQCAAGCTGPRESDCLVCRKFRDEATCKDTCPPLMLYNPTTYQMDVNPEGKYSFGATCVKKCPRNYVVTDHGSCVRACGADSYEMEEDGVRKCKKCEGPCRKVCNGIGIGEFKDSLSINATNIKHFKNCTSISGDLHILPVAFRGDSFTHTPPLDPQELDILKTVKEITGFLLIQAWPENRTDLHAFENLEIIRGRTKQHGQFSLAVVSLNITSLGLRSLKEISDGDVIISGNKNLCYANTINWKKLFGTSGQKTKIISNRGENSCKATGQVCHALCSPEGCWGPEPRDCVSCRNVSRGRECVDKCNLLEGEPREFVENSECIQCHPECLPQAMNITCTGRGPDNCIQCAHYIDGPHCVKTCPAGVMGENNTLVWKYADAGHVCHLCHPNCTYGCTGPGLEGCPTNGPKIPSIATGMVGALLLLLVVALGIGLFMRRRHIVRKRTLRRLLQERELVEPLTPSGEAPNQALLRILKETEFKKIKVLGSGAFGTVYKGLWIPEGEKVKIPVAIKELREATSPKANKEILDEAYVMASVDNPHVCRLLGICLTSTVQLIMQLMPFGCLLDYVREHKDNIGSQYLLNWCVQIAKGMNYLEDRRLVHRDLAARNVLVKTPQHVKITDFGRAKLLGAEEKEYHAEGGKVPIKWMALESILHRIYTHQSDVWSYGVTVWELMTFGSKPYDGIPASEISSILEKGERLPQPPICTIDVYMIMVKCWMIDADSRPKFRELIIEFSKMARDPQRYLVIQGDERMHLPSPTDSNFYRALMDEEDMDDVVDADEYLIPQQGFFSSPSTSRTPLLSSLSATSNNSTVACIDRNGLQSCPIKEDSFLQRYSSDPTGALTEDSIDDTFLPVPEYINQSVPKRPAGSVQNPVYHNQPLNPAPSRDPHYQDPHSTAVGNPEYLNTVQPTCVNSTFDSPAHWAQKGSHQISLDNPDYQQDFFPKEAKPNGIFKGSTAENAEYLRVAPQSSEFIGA
Each entry below carries its recorded pIC50.
Bear in mind: pIC50 is minus log10 of a mol/L concentration; give just that figure.

Recorded pIC50, per entry:
{"Molecule": "CC(C)Oc1cccc2nc(NC(=O)c3ccnnc3)n([C@@H]3CCCCN(C(=O)/C=C/CN(C)C)C3)c12", "pIC50": 7.42}
{"Molecule": "Cc1cccc2nc(NC(=O)c3ccncn3)n(C3CCCCN(C(=O)/C=C/CN(C)C)C3)c12 (stereo not drawn)", "pIC50": 6.89}
{"Molecule": "C=CC(=O)N1CCCC[C@@H](n2c(NC(=O)c3cc(C)nc(C)c3)nc3cc(CN4CCCC4)cc(C)c32)C1", "pIC50": 8.70}
{"Molecule": "CO[C@H]1CCN(C/C=C/C(=O)N2CCCC[C@@H](n3c(NC(=O)c4ccnc(C)c4)nc4cccc(Cl)c43)C2)C1", "pIC50": 8.10}
{"Molecule": "C=CC(=O)N1CCN(C(C)=O)CC(n2c(NC(=O)c3ccnc(C)c3)nc3cccc(Cl)c32)C1 (stereo not drawn)", "pIC50": 7.57}

Q) Look up pIC50: Cc1cccc2nc(NC(=O)c3ccc(Cl)nc3)n([C@@H]3CCCCN(C(=O)/C=C/CN(C)C)C3)c12
A) 8.70
